measurementProtocol: qHTS of pediatric cancer cell lines to identify multiple opportunities for drug repurposing: Primary screen for Rh30 cells (AID 1347107); further: nearly all actives have a fitted effect of over 75% in size
experimentalParameters: Rh30 rhabdomyosarcoma viability, CellTiter-Glo luminescence, 48 h; series mostly up to 46 µM
Inconclusive results are not listed. Active and inactive are the calls of the source. The call rests on the fitted dose curve; in most records, active means well fitted cell-killing curve with a large enough effect; inconclusive means small, poorly fitted or top-dose-only effect; inactive means no such curve, though single readings can be large or run the other way.
Allowed answers: active, inactive

Look up the recorded call for O=C1c2cccc(O)c2C(=O)c2c(O)cc(CO)cc21 in this test. inactive

Look up the recorded call for CN[C@H]1[C@@H](O)[C@@H]2O[C@@H]3O[C@H](C)CC(=O)[C@]3(O)O[C@@H]2[C@@H](NC)[C@H]1O in this test. active

Look up the recorded call for COC[C@H](NC(=O)c1cnc(C)s1)C(=O)N[C@@H](COC)C(=O)N[C@@H](Cc1ccccc1)C(=O)[C@@]1(C)CO1 in this test. active

Look up the recorded call for C[C@@H]1CC[C@@]2(OC1)OC1CC3C4CC=C5CC(O)CCC5(C)C4CCC3(C)C1[C@@H]2C (stereo not given in full) in this test. inactive

Look up the recorded call for Cc1coc2c1C(=O)C(=O)c1c-2ccc2c(C)cccc12 in this test. inactive

* * *

measurementProtocol: Quantitative High-Throughput drug screen in 47 multiple myeloma cell lines against the NCATS MIPE library collection: KMS28BM_JCRB cell viability assay (AID 1919874); further: nearly all actives have a fitted effect of over 35% in size; further: potency means the concentration at half of the fitted maximal effect
experimentalParameters: CellTiter-Glo ATP, 48 h; series mostly up to 45.8 µM
Results filed as inconclusive are left out. Active and inactive are the calls of the source. Calls come from the whole dose curve; as a rule, active = well fitted cell-killing curve with a large enough effect; inconclusive = small, poorly fitted or top-dose-only effect, or effect the other way; inactive = no such curve, though single readings can be large or run the other way.
parameterMeasured: Potency

Use these answered entries as a reference point.
{"molecule": "O=c1[nH]c(=O)n([C@H]2C[C@@H](O)[C@@H](CO)O2)cc1F", "Potency": "20.9 µM (active)"}
{"molecule": "CCOc1cc2c(c(F)c1OCC)C(=N)N(CC(=O)c1cc(N3CCOCC3)c(OC)c(C(C)(C)C)c1)C2", "Potency": "8.33 µM (active)"}
{"molecule": "C[C@H](CCC(=O)O)[C@H]1CCC2C3C[C@H](O)[C@@H]4C[C@H](O)CC[C@]4(C)C3CC[C@@]21C (stereo partly specified)", "Potency": "inactive"}
{"molecule": "C[C@@H](Oc1ccc2[nH]nc(C=Cc3cnn(CCO)c3)c2c1)c1c(Cl)cncc1Cl", "Potency": "1.18 µM (active)"}
{"molecule": "C=CC(=O)N1CCc2ccc(-n3c(=O)ccc4cnc5ccc(-c6cnn(C)c6)cc5c43)cc21", "Potency": "2.96 µM (active)"}
{"molecule": "COc1cc(O)c2c(c1)C1OC1C[C@H](O)[C@H](O)C(=O)C=CC[C@H](C)OC2=O (stereo partly specified)", "Potency": "3.72 µM (active)"}

Requested read-out: Potency. Entry: Nc1nc(=O)n([C@H]2C[C@H](O)[C@@H](CO)O2)cc1F inactive

Requested read-out: Potency. Entry: O=C(C[C@@H]1CC=CCCC(=O)O[C@H](c2ccccc2)CNC1=O)NCc1ccc(Cl)cc1 inactive

Requested read-out: Potency. Entry: Cc1[nH]c(C=C2C(=O)Nc3ccccc32)c(C)c1CCC(=O)O 14.8 µM (active)

Requested read-out: Potency. Entry: COc1cc2c(cc1O)CCC1C2CC[C@@]2(C)C1CC[C@@H]2O (stereo partly specified) 0.935 µM (active)

* * *

measurementProtocol: qHTS profiling of the MIPE4 collection as inhibitors of Plasmodium falciparum (HB3) proliferation (AID 743347);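 further: plate controls were DMSO vehicle wells for no effect and artemisinin wells for full effect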
experimentalParameters: P. falciparum HB3 in erythrocytes, SYBR Green DNA, 72 h; at 28.5 µM (top of the series) unless noted
Task for the reader: assign each of the following molecules its reported growth, % of control.
Output spec: scalar in %, unitless text.

Requested read-out: growth, % of control. Entry: C[C@]12CCC(=O)C=C1[C@@H]1CC1[C@H]1[C@H]3[C@@H]4C[C@H]4[C@@]4(CCC(=O)O4)[C@@]3(C)CC[C@H]12 (some centres undefined) 71.4

Requested read-out: growth, % of control. Entry: Cc1coc2c1C(=O)C(=O)c1c-2ccc2c(C)cccc12 3.19

Requested read-out: growth, % of control. Entry: NC(=O)Nc1sc(-c2ccc(F)cc2)cc1C(N)=O 3.76

Requested read-out: growth, % of control. Entry: CC(C)(O)[C@H]1CC[C@@](C)([C@H]2[C@@H](O)C[C@@]3(C)[C@@H]4C[C@H](O[C@@H]5O[C@H](CO)[C@@H](O)[C@H](O)[C@@H]5O)[C@H]5C(C)(C)[C@@H](O[C@@H]6OC[C@@H](O)[C@H](O)[C@@H]6O)CC[C@@]56C[C@@]46CC[C@]23C)O1 81.9
